System: SW-620
Assay: NCI tumour cell line growth inhibition, 48 h
Calls of active or inactive are those of the source. Cut-off read from the data, not from the text of the source: active = GI50 up to about 1.1 µM and inactive = higher.
Outcomes: true (1) for active, false (0) for inactive

INSERT INTO measurements (molecule, category_label) VALUES
  ('Cc1ccc(NC(=S)C#N)cc1Cl', 'false (0)'),
  ('CCc1ccccc1NC(=O)C1=C(C)NC(C)=C(C(=O)Nc2ccccc2CC)C1c1cccc([N+](=O)[O-])c1', 'false (0)'),
  ('CC1=C(C2=C(C)C(=O)C(=O)c3cc(C)ccc32)c2ccc(C)cc2C(=O)C1=O', 'true (1)'),
  ('COc1cc(C#CC(=O)OC/C=C/c2ccc3c(c2)OCO3)cc(OC)c1OC', 'false (0)'),
  ('COc1ccc(C2Oc3ccc(Cl)cc3C=C2[N+](=O)[O-])cc1OC (stereo unspecified)', 'true (1)'),
  ('O=C1/C(=C\c2ccc([N+](=O)[O-])cc2)N(S(=O)(=O)c2ccccc2)c2ncccc21', 'false (0)'),
  ('O=C(NCC(O)COc1ccccc1)c1ccccc1O (stereo unspecified)', 'false (0)'),
  ('CC[C@]12C=CCN3CCC4(c5cc([C@@]6(C(=O)OC)CC7CN(CCc8c6[nH]c6ccccc86)C[C@@H]6CCCC[C@H]76)c(OC)cc5N(C)C4[C@](O)(C(=O)OC)C1OC(C)=O)[C@@H]32 (stereo partly specified)', 'true (1)'),
  ('[O-][S+](c1ccc(O)cc1)c1ccc(O)cc1', 'false (0)'),
  ('COc1nc(OC)nc(Sc2ccc(Sc3ccc(Sc4nc(OC)nc(OC)n4)cc3)cc2)n1', 'false (0)'),
  ('O=C(Nc1cccc(O)c1)C(=O)C(C(=O)c1ccc(Cl)c(Cl)c1)C1OC(=O)c2ccccc21 (stereo unspecified)', 'false (0)'),
  ('COC(=O)C1=CCC[C@H]2[C@@]1(COC(C)=O)CC[C@@H](C)[C@]2(C)CC(=O)c1ccoc1', 'false (0)'),
  ('CCOC(=O)C(C)(C)Oc1ccc2c(-c3ccccc3)cc(=O)oc2c1', 'false (0)'),
  ('CCOC(=O)c1c(C)[nH]c2c1c(CN(C)C)c(O)c1nc(C)c(C)nc12', 'false (0)'),
  ('CCOC(=O)C1=C(Nc2cccc(OC)c2)OCC1=O', 'false (0)'),
  ('CC(=O)c1ccc(N2CCN(C3=CC(=O)c4c(O)ccc(O)c4C3=O)CC2)cc1', 'false (0)'),
  ('Cc1cc2c(C)nn(Cc3ccc(Cl)cc3)c2c(C#N)c1C', 'false (0)'),
  ('OCCNCO', 'false (0)'),
  ('Nc1ccc2c(SCCSc3c4ccccc4nc4cc(N)ccc34)c3ccccc3nc2c1', 'false (0)'),
  ('C=C1CC(CN2CCC(=O)NC2=O)(c2ccccc2)OC1=O (stereo unspecified)', 'false (0)'),
  ('COc1cc(-c2cc(=O)c3ccccc3o2)ccc1N', 'false (0)');

----------
Test system: HOP-92
Assay: NCI tumour cell line growth inhibition, 48 h
Active and inactive are the calls of the source. Cut-off read from the data, not from the text of the source: active = GI50 up to about 1.1 µM and inactive = higher.
property name: GI50

INSERT INTO assay_data (molecule, result) VALUES
  ('COC(=O)c1cc(=O)nc2sc3cccc(C)c3n12', '30.2 µM (inactive)'),
  ('CN(C)C1(N(C)C)Oc2c(c(=O)n(C)c(=O)n2C)C(c2ccc(F)cc2)C1(F)F (stereo not given)', '> 100 µM (inactive)'),
  ('C[C@]12CC[C@H]3[C@@H](CC=C4C[C@@H](O)CC[C@@]43C)[C@@H]1C/C(=C/c1ccccc1)[C@@H]2O', '32.4 µM (inactive)'),
  ('CS(=O)(=O)C(C#N)c1nc2ccccc2nc1Cl (stereo not given)', '> 100 µM (inactive)'),
  ('NC(CCSCCF)C(=O)O (stereo not given)', '> 100 µM (inactive)'),
  ('O=C1c2ccccc2OCC12OC21C=CC(Cl)=CC1 (stereo not given)', '36.1 µM (inactive)'),
  ('C=CC(Br)(CBr)CCC(Br)C(C)(C)Br (stereo not given)', '15.7 µM (inactive)'),
  ('O=C(O)c1cc2ccccc2c(/N=N/c2ccc(S(=O)(=O)Nc3ccccn3)cc2)c1O', '> 100 µM (inactive)'),
  ('COC(=O)[C@H]1ON2O[C@@H](O[C@H]3CCCC[C@@H]3C(C)(C)c3ccccc3)C[C@@H]3CC[C@H]1[C@@]32C', '> 100 µM (inactive)'),
  ('Cc1cc(O)c(C(C)C)cc1NC(=O)Nc1cccc2ccccc12', '17.4 µM (inactive)');

----------
System: SF-268
Experiment: NCI tumour cell line growth inhibition, 48 h
The source made the active and inactive calls. No stated cut-off is given here; in the data, active = GI50 up to about 1.1 µM and inactive = higher.
Outcomes: Yes for active, No for inactive

INSERT INTO results (compound, subject_of_test, category_label) VALUES
  ('Cc1cccc(C2=C/C(=C(\SS/C(C(=O)c3ccc(OCC(=O)O)c(Cl)c3Cl)=C3\C=C(c4cccc(C)c4)SS3)C(=O)c3ccc(OCC(=O)O)c(Cl)c3Cl)SS2)c1', 'SF-268', 'No'),
  ('COc1cc(N(CCC#N)CCC#N)ccc1C(=N/NC(=O)c1cc(Br)ccc1O)/N=N/c1ccc(C)cc1', 'SF-268', 'No'),
  ('O=[N+]([O-])c1ccc2c(c1)Nc1c3ccccc3nc3cccc-2c13', 'SF-268', 'No'),
  ('CN(C)CCNc1ccc([N+](=O)[O-])c2nc3ccccc3c(N)c12', 'SF-268', 'Yes'),
  ('CCc1ccccc1NC(=O)C1=C(C)NC(C)=C(C(=O)Nc2ccccc2CC)C1c1cccc([N+](=O)[O-])c1', 'SF-268', 'No'),
  ('CCN(CC)CCNc1ccc2ncn3c4c(OC)cccc4c(=O)c1c23', 'SF-268', 'No'),
  ('CC(C)C[C@H](NC(=O)[C@@H](Cc1cccc2ccccc12)NC(=O)N1CCOCC1)B(O)O', 'SF-268', 'No'),
  ('c1ccc(COc2ccc3[nH]c4c5c6ccccc6nc-5c[nH]c4c3c2)cc1', 'SF-268', 'No'),
  ('N#CC(C#N)=C(N)/C(C#N)=C\c1ccnc2ccccc12', 'SF-268', 'No'),
  ('COc1cc(OC)cc(C(=O)NC2=C(Cl)C(=O)c3ccccc3C2=O)c1', 'SF-268', 'No'),
  ('C[C@@H](CO)OCOCc1ccccc1', 'SF-268', 'No'),
  ('Cc1cc(O)c(C(C)C)cc1NC(=O)Nc1cccc2ccccc12', 'SF-268', 'No'),
  ('CC(NCc1c(O)ccc2ccc(=O)oc12)C(=O)O (stereo not drawn)', 'SF-268', 'No'),
  ('C[C@@H]1CCC[C@]2(C)O[C@H]2CC[C@@](C)(O)[C@@H]2CC3=C(CO)C(=O)O[C@H]3[C@H]1O2', 'SF-268', 'No'),
  ('CN1CCC(O)(OC(=O)C(c2ccccc2)C2(O)CCCC2)CC1 (stereo not drawn)', 'SF-268', 'No'),
  ('COc1cc(C#CC(=O)OC/C=C/c2ccc3c(c2)OCO3)cc(OC)c1OC', 'SF-268', 'No'),
  ('Cc1ccc(NC(=O)c2cccc([N+](=O)[O-])c2O)c(C)c1', 'SF-268', 'No'),
  ('CCC(=O)O[C@H]1CC[C@H]2[C@@H]3CCC4=CC(=O)C=C[C@]4(O)[C@H]3CC[C@]12C', 'SF-268', 'No'),
  ('Nc1nc2[nH]cc(CCc3ccc(C(=O)N[C@@H](CCC(=O)O)C(=O)O)cc3)c2c(=O)[nH]1', 'SF-268', 'Yes'),
  ('COC(=O)[C@H]1ON2O[C@@H](O[C@H]3CCCC[C@@H]3C(C)(C)c3ccccc3)C[C@@H]3CC[C@H]1[C@@]32C', 'SF-268', 'No'),
  ('CO[C@H]1O[C@@H]2OC3(C)CCC4[C@H](C)CCC([C@H]1C)[C@]42OO3 (stereo partly drawn)', 'SF-268', 'No'),
  ('COCCOCOc1ccc(OCc2ccccc2)cc1', 'SF-268', 'No'),
  ('COc1ccc2[nH]c(Cl)c(/C=C3/C(=O)N(c4ccccc4)c4ccccc43)c2c1', 'SF-268', 'No'),
  ('CCCCCCCCCCSS(=O)(=O)c1ccc(C)cc1', 'SF-268', 'No'),
  ('CCn1c2ccccc2c2cc(Nc3cc(C)[nH]c(=O)n3)ccc21', 'SF-268', 'No'),
  ('O=C1C=CC2(O[C@H](c3ccccc3)[C@@H](c3ccccc3)O2)C(SC(=O)c2ccccc2)C1 (stereo partly drawn)', 'SF-268', 'No'),
  ('NC(CCSCCF)C(=O)O (stereo not drawn)', 'SF-268', 'No'),
  ('CC1OC(OC2C(OC(=O)[C@]34CCC(C)(C)C[C@H]3C3=CC[C@@H]5[C@@]6(C)CC[C@H](OC7OC(C(=O)O)C(O)C(O)C7O)C(C)(C)[C@@H]6CC[C@@]5(C)[C@]3(C)C[C@H]4O)OCC(O)C2O)C(O)C(OC2OCC(O)(CO)C2O)C1OC1OCC(O)C(O)C1O (stereo partly drawn)', 'SF-268', 'No'),
  ('Cc1cc(S(=O)(=O)N=C2NCC(C)(C)CN2)c(S)cc1Cl', 'SF-268', 'No'),
  ('CCOC(=O)C(C)(C)Oc1ccc2c(-c3ccccc3)cc(=O)oc2c1', 'SF-268', 'No'),
  ('Cn1c(=O)c2c3ccccc3c(C(=O)c3ccccc3)n2c2ccccc21', 'SF-268', 'No'),
  ('N=C1C=C(N)C(=O)c2[nH]c(=O)ccc21', 'SF-268', 'No'),
  ('NCCSC1(O)C(=O)c2ccccc2-c2ccccc21 (stereo not drawn)', 'SF-268', 'No'),
  ('C=C1CC2(CC(c3ccccc3Cl)OC(c3ccccc3Cl)C2)OC1=O (stereo not drawn)', 'SF-268', 'No'),
  ('CC(Br)CN(CC(C)Br)c1ccc2c(c1)Cc1ccccc1-2 (stereo not drawn)', 'SF-268', 'No'),
  ('O=C(O)C1CC(c2ccc(F)cc2)=Nc2ccc(F)cc2S1 (stereo not drawn)', 'SF-268', 'No'),
  ('Cc1nc(N)nc(S)c1CCC(=O)O', 'SF-268', 'No'),
  ('C=C1C(=O)O[C@@H]2[C@H]1CC[C@H](C)[C@]1(O)CCC(=O)[C@@]21C', 'SF-268', 'No');
